Target: norepinephrine transporter (NET) (Rattus norvegicus)
Construct: Cortex from rat brain was collected and homogenised; from tissue; host or cells: rat brain cortex membranes
Sequence (Q63380 1-617): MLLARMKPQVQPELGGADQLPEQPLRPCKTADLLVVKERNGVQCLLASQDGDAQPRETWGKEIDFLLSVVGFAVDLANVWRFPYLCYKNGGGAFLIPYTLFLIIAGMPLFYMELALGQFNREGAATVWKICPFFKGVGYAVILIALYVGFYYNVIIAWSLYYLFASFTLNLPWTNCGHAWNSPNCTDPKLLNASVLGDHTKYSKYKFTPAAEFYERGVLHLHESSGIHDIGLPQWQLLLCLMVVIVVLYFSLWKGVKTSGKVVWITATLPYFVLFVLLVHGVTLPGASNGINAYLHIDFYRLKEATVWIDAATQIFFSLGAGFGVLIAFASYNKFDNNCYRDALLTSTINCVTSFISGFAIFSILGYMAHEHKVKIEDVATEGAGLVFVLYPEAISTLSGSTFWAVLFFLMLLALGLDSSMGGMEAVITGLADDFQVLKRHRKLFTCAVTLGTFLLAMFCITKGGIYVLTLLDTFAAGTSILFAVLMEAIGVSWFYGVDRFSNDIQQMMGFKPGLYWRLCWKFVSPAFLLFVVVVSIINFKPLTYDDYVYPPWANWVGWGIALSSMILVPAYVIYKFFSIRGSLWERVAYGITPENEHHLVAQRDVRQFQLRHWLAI
Assay: In vitro assay for NET inhibition (radioligand binding, rat brain cortex)
Details: rat brain cortex membranes, [3H]Nixosetine radioligand; read-out: NET-inhibition (pIC50) (converted)
endpoint.label: IC50 (µM)
Report the value in µM with no unit label.

Some compounds with recorded IC50:
>  <compound>
C[C@@H]1c2ccccc2[C@H]2C[C@H](CN(C)C)O[C@@H]2c2cc(F)ccc21 [Compound 66]

>  <numeric.readout>
0.0316

$$$$
>  <compound>
C=C1c2ccccc2C2CC(CN(C)C)OC2c2ccccc21 (single isomer, unassigned) [Compound 24]

>  <numeric.readout>
0.02

$$$$
>  <compound>
C=C1c2ccccc2[C@H]2C[C@H](CN(C)C)O[C@@H]2c2ccccc21 [Compound 25]

>  <numeric.readout>
0.0126

$$$$

Consider the record given below.
Please give measured IC50 of the following entry: COc1ccc2c(c1)[C@H]1O[C@@H](CN(C)C)C[C@@H]1c1ccccc1C2=O [Compound 16]
0.501

---

Biological target: human dopamine D2L receptor (Homo sapiens)
Construct: expressed in transfected cells; host or cells: CHO cells (frozen membranes)
Test: In vitro assay for D2 receptor binding
Conditions: membranes of human D2L-transfected CHO cells, [3H]Spiperone radioligand; read-out: D2 (pIC50) (converted)
endpoint.label: IC50

>  <compound>
C=C1c2ccccc2C2CC(CN(C)C)OC2c2ccccc21 (single isomer, unassigned)

>  <IC50>
> 10 µM

$$$$
>  <compound>
NC[C@H]1C[C@@H]2c3ccccc3[C@@H](O)c3ccc(F)cc3[C@H]2O1

>  <IC50>
7.94 µM

$$$$
>  <compound>
CNCC1CC2c3ccccc3C(C)c3ccc(F)cc3C2O1 (single isomer, unassigned) [Compound 73]

>  <IC50>
0.0631 µM

$$$$

Specify the recorded IC50 for `CNC[C@H]1C[C@@H]2c3ccccc3[C@H](O)c3ccc(F)cc3[C@H]2O1` , system: human dopamine D2L receptor (Homo sapiens).
> 1 µM

Specify the recorded IC50 for COC1c2ccccc2[C@H]2C[C@H](CN(C)C)O[C@@H]2c2cc(F)ccc21 (some centres unmarked) , system: human dopamine D2L receptor (Homo sapiens).
3.98 µM

Specify the recorded IC50 for CNC[C@@H]1C[C@H]2c3ccccc3C(C)c3ccc(F)cc3[C@@H]2O1 (mixture of isomers) , system: human dopamine D2L receptor (Homo sapiens).
> 10 µM

Specify the recorded IC50 for CNCC1CC2c3ccccc3C(C)(O)c3ccc(F)cc3C2O1 (single isomer, unassigned) , system: human dopamine D2L receptor (Homo sapiens).
> 10 µM

Specify the recorded IC50 for `CN(C)C[C@H]1C[C@@H]2c3ccccc3C(=O)c3ccc(F)cc3[C@H]2O1` , system: human dopamine D2L receptor (Homo sapiens).
> 1 µM

---

Assay: Metabolic stability assay using human liver microsomes
Format: in vitro ADME
Details: 5.0 μM test compound, 15 min incubation, LC-MS
endpoint.label: % metabolised (%)
Report the value in % with no unit label.

>  <molecule>
CN(C)C[C@H]1C[C@@H]2c3ccccc3[C@](C)(O)c3ccc(F)cc3[C@H]2O1

>  <% metabolised [%]>
2.25

$$$$
>  <molecule>
C[C@@H]1c2ccccc2[C@H]2C[C@H](CN(C)C)O[C@@H]2c2cc(F)ccc21

>  <% metabolised [%]>
11.35

$$$$
>  <molecule>
CNCC1CC2c3ccccc3C(C)c3ccc(F)cc3C2O1 (single isomer, unassigned)

>  <% metabolised [%]>
9

$$$$

Please give measured % metabolised of the following entry: `C=C1c2ccccc2[C@H]2C[C@H](CN(C)C)O[C@@H]2c2cc(F)ccc21`
2.6

---

Listed here are compounds together with their documented D2/NET.
Target: human dopamine D2L receptor (Homo sapiens)
Construct: expressed in transfected cells; host or cells: CHO cells (frozen membranes)
Experiment: In vitro assay for D2 receptor binding
Conditions: ratio of D2 pIC50 to NET-inhibition pIC50

Please give measured D2/NET of the following entry: `C[C@@H]1c2ccccc2[C@H]2C[C@H](CN(C)C)O[C@@H]2c2cc(F)ccc21`
0.86

Please give measured D2/NET of the following entry: CNCC1CC2c3ccccc3C(C)(O)c3ccc(F)cc3C2O1 (single isomer, unassigned) [Compound 126]
<0.69

---

Target: human dopamine D2L receptor (Homo sapiens, UniProt P14416)
Construct: expressed in transfected cells; host or cells: CHO cells (frozen membranes)
Sequence (P14416 whole entry): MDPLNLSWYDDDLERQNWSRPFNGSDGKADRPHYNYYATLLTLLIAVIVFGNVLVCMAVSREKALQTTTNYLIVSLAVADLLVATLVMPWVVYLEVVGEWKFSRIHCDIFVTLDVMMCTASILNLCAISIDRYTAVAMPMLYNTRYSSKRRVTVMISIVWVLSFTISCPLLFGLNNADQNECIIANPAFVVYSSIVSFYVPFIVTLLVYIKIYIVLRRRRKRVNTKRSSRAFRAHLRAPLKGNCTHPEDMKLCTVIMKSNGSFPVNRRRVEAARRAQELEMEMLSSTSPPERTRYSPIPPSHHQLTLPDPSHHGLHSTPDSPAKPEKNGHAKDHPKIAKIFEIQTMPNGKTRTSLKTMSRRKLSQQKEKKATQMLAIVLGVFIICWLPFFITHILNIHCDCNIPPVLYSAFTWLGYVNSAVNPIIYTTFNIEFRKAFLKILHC
Experiment: In vitro assay for D2 receptor binding
Conditions: ratio of D2 pIC50 to NET-inhibition pIC50
Listed here are compounds together with their documented D2/NET.
// response body must contain only the number

Some compounds with recorded D2/NET:
>  <compound>
CNC[C@H]1C[C@H]2c3cc(F)ccc3C(C)c3ccccc3[C@@H]2O1 (mixture of isomers)

>  <D2/NET>
0.68

$$$$
>  <compound>
CCNCC1CC2c3ccccc3C(C)(O)c3ccc(F)cc3C2O1 (single isomer, unassigned) [Compound 118]

>  <D2/NET>
0.91

$$$$
>  <compound>
COC1c2ccccc2C2CC(CNCc3ccccc3)OC2c2cc(F)ccc21 (stereo not shown)

>  <D2/NET>
0.96

$$$$
>  <compound>
NC[C@H]1C[C@@H]2c3ccccc3[C@@H](O)c3ccc(F)cc3[C@H]2O1

>  <D2/NET>
0.60

$$$$
>  <compound>
COc1ccc2c(c1)[C@H]1O[C@@H](CN(C)C)C[C@@H]1c1ccccc1C2=O

>  <D2/NET>
0.95

$$$$

Please give measured D2/NET of the following entry: COC1c2ccccc2[C@H]2C[C@H](CN(C)C)O[C@@H]2c2cc(F)ccc21 (stereo partly shown)
0.79

Please give measured D2/NET of the following entry: CCNCC1CC2c3ccccc3C(C)(O)c3ccc(F)cc3C2O1 (single isomer, unassigned) [Compound 119]
0.67

Please give measured D2/NET of the following entry: C=C1c2ccc(F)cc2C2CC(CNC)OC2c2ccccc21 (single isomer, unassigned) [Compound 94]
0.65

Please give measured D2/NET of the following entry: `C=C1c2ccccc2[C@H]2C[C@H](CN(C)C)O[C@@H]2c2ccccc21`
0.85

Please give measured D2/NET of the following entry: CNCC1CC2c3ccccc3C(C)c3ccc(F)cc3C2O1 (single isomer, unassigned) [Compound 73]
0.96

Please give measured D2/NET of the following entry: `CNC[C@H]1C[C@@H]2c3cc(F)ccc3[C@@H](C)c3ccccc3[C@H]2O1`
0.69

---

Biological target: human cloned 5-HT2A receptor (Homo sapiens)
Construct: expressed in transfected cells; host or cells: L929 cells
Experiment: In vitro binding affinity for 5-HT2A receptor (radioligand binding)
Details: human cloned 5-HT2A receptor expressed in L929 cells, [125I]R91150 radioligand; read-out: 5-HT2A (pIC50) (converted)
endpoint.label: IC50 (nM)
Report the value in nM with no unit label.

Some compounds with recorded IC50:
>  <compound>
CNCC1CC2c3ccccc3C(C)c3ccc(F)cc3C2O1 (single isomer, unassigned) [Compound 73]

>  <target.or.system>
human cloned 5-HT2A receptor (Homo sapiens)

>  <unit.symbol>
nM

>  <numeric.readout>
2

$$$$
>  <compound>
CN(C)C[C@H]1C[C@@H]2c3ccccc3[C@](C)(O)c3ccc(F)cc3[C@H]2O1

>  <target.or.system>
human cloned 5-HT2A receptor (Homo sapiens)

>  <unit.symbol>
nM

>  <numeric.readout>
31.6

$$$$
>  <compound>
CNCC1CC2c3ccccc3C(C)c3ccc(F)cc3C2O1 (single isomer, unassigned) [Compound 74]

>  <target.or.system>
human cloned 5-HT2A receptor (Homo sapiens)

>  <unit.symbol>
nM

>  <numeric.readout>
12.6

$$$$
>  <compound>
CCNC[C@H]1C[C@@H]2c3ccccc3[C@@H](O)c3ccc(F)cc3[C@H]2O1 (relative stereo)

>  <target.or.system>
human cloned 5-HT2A receptor (Homo sapiens)

>  <unit.symbol>
nM

>  <numeric.readout>
20

$$$$
>  <compound>
C[C@@H]1c2ccccc2[C@H]2C[C@H](CN(C)C)O[C@@H]2c2cc(F)ccc21

>  <target.or.system>
human cloned 5-HT2A receptor (Homo sapiens)

>  <unit.symbol>
nM

>  <numeric.readout>
25.1

$$$$
>  <compound>
C=C1c2ccccc2C2CC(CN(C)C)OC2c2ccccc21 (single isomer, unassigned)

>  <target.or.system>
human cloned 5-HT2A receptor (Homo sapiens)

>  <unit.symbol>
nM

>  <numeric.readout>
158

$$$$
>  <compound>
CN(C)C[C@H]1C[C@@H]2c3ccccc3C(=O)c3ccc(F)cc3[C@H]2O1

>  <target.or.system>
human cloned 5-HT2A receptor (Homo sapiens)

>  <unit.symbol>
nM

>  <numeric.readout>
63.1

$$$$

Please give measured IC50 of the following entry: `C=C1c2ccccc2[C@H]2C[C@H](CN(C)C)O[C@@H]2c2ccccc21`
12.6

---

Molecular target: human dopamine D2L receptor (Homo sapiens, UniProt P14416)
Construct: expressed in transfected cells; host or cells: CHO cells (frozen membranes)
Assay: In vitro assay for D2 receptor binding
Conditions: ratio of D2 pIC50 to NET-inhibition pIC50
Protocol: Frozen membranes of human dopamine D2L receptor-transfected CHO cells were thawed, briefly homogenised using an Ultra-Turrax T25 homogeniser and diluted in Tris-HCl assay buffer containing NaCl, CaCl2, MgCl2, KCl (50, 120, 2, 1, and 5 mM respectively, adjusted to pH 7.7 with HCl) to an appropriate protein concentration optimised for specific and non-specific binding. […] Percentage specific bound and competition binding curves were calculated using S-Plus software (Insightful).
endpoint.label: D2/NET
// response body must contain only the number

>  <compound>
C[C@@H]1c2ccccc2[C@H]2C[C@H](CN(C)C)O[C@@H]2c2cc(N(C)C)ccc21 [Compound 78]

>  <target.or.system>
human dopamine D2L receptor (Homo sapiens, UniProt P14416)

>  <D2/NET>
0.88

$$$$

Consider the record given below.
Please give measured D2/NET of the following entry: CCNC[C@H]1C[C@@H]2c3ccccc3[C@H](O)c3ccc(F)cc3[C@H]2O1 [Compound 107]
0.86
